B1: MATN2 (parent)
chain: FSLKTFKRKSEVERAVKRMRHLST

variants of: B1; assay: protein stability index of a GFP-peptide fusion (GPS, HEK-293T) (PSI 1-6); higher = more stable; settings: c terminus: a fixed tail appended;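 also: lentivirally expressed fusions sorted by FACS into six bins by GFP to DsRed ratio, PSI derived from sequencing read proportions per bin multiplied by bin number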
Threshold rule: protein stability index greater than or equal to 2 is Condition met; below that, Condition not met.

For orientation, consider the following solved cases.
{"Variant descriptor": "K9I", "Label value": "Condition not met"}
{"Variant descriptor": "S10H", "Label value": "Condition met"}
{"Variant descriptor": "A15N", "Label value": "Condition met"}

// query Exam item: decide whether the reported protein stability index for M19A is at least 2.
// result Condition met

// query Exam item: decide whether the reported protein stability index for S2W is at least 2.
// result Condition not met

// query Exam item: decide whether the reported protein stability index for S23G is at least 2.
// result Condition met

// query Exam item: decide whether the reported protein stability index for E11Y is at least 2.
// result Condition met

// query Exam item: decide whether the reported protein stability index for L22R is at least 2.
// result Condition met

// query Exam item: decide whether the reported protein stability index for M19W is at least 2.
// result Condition met
